Listed below: inhibition of growth at 10 µM values for each entry.
system: NCI-H522; test: Growth inhibition of human NCI-H522 cells at 10 uM incubated for 48 hrs by sulforhodamine B assay relative to control; format: functional; conditions: read-out: GI
Report the value in % with no unit label.

Example results:
| MOL SMILES | inhibition of growth at 10 µM, % |
| --- | --- |
| COc1cc2nc(-c3ccc(C(F)(F)F)cc3)cc(OCCN3CCCC3)c2cc1OC | 13 |
| COc1cc2nc(-c3ccc(C(F)(F)F)cc3)cc(OCCN3CCOCC3)c2cc1OC | 13 |
| COc1cc2nc(-c3ccco3)cc(OCCCN3CCC(O)CC3)c2cc1OC | 46 |
| COc1cc2nc(-c3ccc(Cl)cc3)cc(OCCCN3CCCC3)c2cc1OC | 62 |
| COc1cc2nc(-c3cccs3)cc(OCCCN3CCC(O)CC3)c2cc1OC | 20 |
| COc1cc2nc(-c3ccc(C(F)(F)F)cc3)cc(OCCN3CCCCC3)c2cc1OC | 13 |

Record `COc1cc2nc(-c3ccc(Cl)cc3)cc(OCCCN3CCOCC3)c2cc1OC` . Reported inhibition of growth at 10 µM: 62

Record `COc1cc2nc(-c3ccc(Cl)cc3)cc(OCCN3CCOCC3)c2cc1OC` . Reported inhibition of growth at 10 µM: 3

Record `COc1cc2nc(-c3ccc(C(F)(F)F)cc3)cc(OCCN3CCC(O)CC3)c2cc1OC` . Reported inhibition of growth at 10 µM: 13

Record `COc1cc2nc(-c3ccc(Cl)cc3)cc(OCCCN3CCC(O)CC3)c2cc1OC` . Reported inhibition of growth at 10 µM: 62

Record `COc1cc2nc(-c3ccc(Cl)cc3)cc(OCCCN3CCCCC3)c2cc1OC` . Reported inhibition of growth at 10 µM: 62

Record `COc1cc2nc(-c3ccsc3)cc(OCCCN3CCC(O)CC3)c2cc1OC` . Reported inhibition of growth at 10 µM: 32

Record `COc1cc2nc(-c3ccc(Cl)cc3)cc(OCCN3CCCC3)c2cc1OC` . Reported inhibition of growth at 10 µM: 3

Record `COc1cc2nc(-c3ccc(Cl)cc3)cc(OCCN3CCC(O)CC3)c2cc1OC` . Reported inhibition of growth at 10 µM: 3

Record `COc1cc2nc(-c3ccc(Cl)cc3)cc(OCCN3CCCCC3)c2cc1OC` . Reported inhibition of growth at 10 µM: 3

###

test system: A498; experiment: Growth inhibition of human A498 cells at 10 uM incubated for 48 hrs by sulforhodamine B assay relative to control; format: functional; settings: read-out: GI
Mark F for inhibition of growth at 10 µM values under 30%, and T for everything at or above.

Solved cases (2 shown):
| MOL SMILES | SYSTEM NAME | LABEL CLASS |
| --- | --- | --- |
| COc1cc2nc(-c3ccc(C(F)(F)F)cc3)cc(OCCN3CCCC3)c2cc1OC | A498 | F |
| COc1cc2nc(-c3ccsc3)cc(OCCCN3CCC(O)CC3)c2cc1OC | A498 | T |

Say whether `COc1cc2nc(-c3ccc(Cl)cc3)cc(OCCCN3CCOCC3)c2cc1OC` shows inhibition of growth at 10 µM of 30% or more.
T

Say whether `COc1cc2nc(-c3ccc(Cl)cc3)cc(OCCCN3CCCCC3)c2cc1OC` shows inhibition of growth at 10 µM of 30% or more.
T

Say whether `COc1cc2nc(-c3ccc(C(F)(F)F)cc3)cc(OCCN3CCCCC3)c2cc1OC` shows inhibition of growth at 10 µM of 30% or more.
F

Say whether `COc1cc2nc(-c3ccc(Cl)cc3)cc(OCCN3CCCC3)c2cc1OC` shows inhibition of growth at 10 µM of 30% or more.
F

Say whether `COc1cc2nc(-c3ccc(C(F)(F)F)cc3)cc(OCCN3CCOCC3)c2cc1OC` shows inhibition of growth at 10 µM of 30% or more.
F

Say whether `COc1cc2nc(-c3cccs3)cc(OCCCN3CCC(O)CC3)c2cc1OC` shows inhibition of growth at 10 µM of 30% or more.
F

Say whether `COc1cc2nc(-c3ccco3)cc(OCCCN3CCC(O)CC3)c2cc1OC` shows inhibition of growth at 10 µM of 30% or more.
T

Say whether `COc1cc2nc(-c3ccc(Cl)cc3)cc(OCCCN3CCCC3)c2cc1OC` shows inhibition of growth at 10 µM of 30% or more.
T

###

system: SNB-75; assay: Growth inhibition of human SNB-75 cells incubated for 48 hrs by sulforhodamine B assay; format: functional
VALUE TYPE: GI50 (nM)
Report the value in nM with no unit label.

| MOL SMILES | GI50 / nM |
| --- | --- |
| COc1cc2nc(-c3ccc(Cl)cc3)cc(OCCCN3CCCCC3)c2cc1OC | 1980 |
| COc1cc2nc(-c3ccc(C(F)(F)F)cc3)cc(OCCCN3CCCC3)c2cc1OC | 1850 |
| COc1cc2nc(-c3ccc(C(F)(F)F)cc3)cc(OCCCN3CCC(O)CC3)c2cc1OC | 2580 |

Record `COc1cc2nc(-c3ccc(C(F)(F)F)cc3)cc(OCCCN3CCCCC3)c2cc1OC` . Reported GI50: 1960

Record `COc1cc2nc(-c3ccc(Cl)cc3)cc(OCCCN3CCOCC3)c2cc1OC` . Reported GI50: 2060

Record `COc1cc2nc(-c3ccc(C(F)(F)F)cc3)cc(OCCCN3CCOCC3)c2cc1OC` . Reported GI50: 2460

Record `COc1cc2nc(-c3ccc(Cl)cc3)cc(OCCCN3CCC(O)CC3)c2cc1OC` . Reported GI50: 1760

Record `COc1cc2nc(-c3ccc(Cl)cc3)cc(OCCCN3CCCC3)c2cc1OC` . Reported GI50: 1730

###

Listed below: inhibition of growth at 10 µM values for each entry.
tested on: SK-MEL-2; test: Growth inhibition of human SK-MEL-2 cells at 10 uM incubated for 48 hrs by sulforhodamine B assay relative to control; assay type: functional; settings: read-out: GI
Report the value in % with no unit label.

Example results:
| MOL SMILES | SYSTEM NAME | VALUE TYPE | ASSAY VALUE |
| --- | --- | --- | --- |
| COc1cc2nc(-c3ccco3)cc(OCCCN3CCC(O)CC3)c2cc1OC | SK-MEL-2 | inhibition of growth at 10 µM | 46 |
| COc1cc2nc(-c3ccc(Cl)cc3)cc(OCCCN3CCCCC3)c2cc1OC | SK-MEL-2 | inhibition of growth at 10 µM | 62 |
| COc1cc2nc(-c3ccsc3)cc(OCCCN3CCC(O)CC3)c2cc1OC | SK-MEL-2 | inhibition of growth at 10 µM | 32 |
| COc1cc2nc(-c3cccs3)cc(OCCCN3CCC(O)CC3)c2cc1OC | SK-MEL-2 | inhibition of growth at 10 µM | 20 |

Record `COc1cc2nc(-c3ccc(Cl)cc3)cc(OCCCN3CCOCC3)c2cc1OC` . Reported inhibition of growth at 10 µM: 62

Record `COc1cc2nc(-c3ccc(C(F)(F)F)cc3)cc(OCCN3CCCCC3)c2cc1OC` . Reported inhibition of growth at 10 µM: 13

Record `COc1cc2nc(-c3ccc(Cl)cc3)cc(OCCCN3CCCC3)c2cc1OC` . Reported inhibition of growth at 10 µM: 62

Record `COc1cc2nc(-c3ccc(C(F)(F)F)cc3)cc(OCCN3CCOCC3)c2cc1OC` . Reported inhibition of growth at 10 µM: 13

Record `COc1cc2nc(-c3ccc(C(F)(F)F)cc3)cc(OCCN3CCCC3)c2cc1OC` . Reported inhibition of growth at 10 µM: 13

Record `COc1cc2nc(-c3ccc(Cl)cc3)cc(OCCN3CCC(O)CC3)c2cc1OC` . Reported inhibition of growth at 10 µM: 3

Record `COc1cc2nc(-c3ccc(Cl)cc3)cc(OCCN3CCOCC3)c2cc1OC` . Reported inhibition of growth at 10 µM: 3

Record `COc1cc2nc(-c3ccc(Cl)cc3)cc(OCCN3CCCCC3)c2cc1OC` . Reported inhibition of growth at 10 µM: 3

###

Listed below: GI50 values for each entry.
test system: MDA-MB-231; assay: Growth inhibition of human MDA-MB-231 cells incubated for 48 hrs by sulforhodamine B assay; format: functional
Report the value in nM with no unit label.

Record `COc1cc2nc(-c3ccc(C(F)(F)F)cc3)cc(OCCCN3CCCCC3)c2cc1OC` . Reported GI50: 536

Record `COc1cc2nc(-c3ccc(Cl)cc3)cc(OCCCN3CCCCC3)c2cc1OC` . Reported GI50: 666

Record `COc1cc2nc(-c3ccc(C(F)(F)F)cc3)cc(OCCCN3CCCC3)c2cc1OC` . Reported GI50: 565

Record `COc1cc2nc(-c3ccc(Cl)cc3)cc(OCCCN3CCOCC3)c2cc1OC` . Reported GI50: 1010

Record `COc1cc2nc(-c3ccc(C(F)(F)F)cc3)cc(OCCCN3CCOCC3)c2cc1OC` . Reported GI50: 498
